Target: SCRIB_3 (Homo sapiens)
Sequence (Q14160 1004-1093 limits assumed): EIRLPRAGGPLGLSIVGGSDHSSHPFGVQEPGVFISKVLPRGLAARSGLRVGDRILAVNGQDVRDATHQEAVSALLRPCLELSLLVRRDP
Assay: HTRF peptide-GST-PDZ binding
Ends that are not written are not given here.
result type: pEC50
// returns pEC50 (minus log10 of molar concentration), number only

Exam item: Dear colleague, I am looking for the recorded pEC50 of the following sequence: KSHKFVMRLQSETSV [Vangl2]
Marked response: 4.89
